Recorded pIC50 by entry
Molecular target: human TRPV1 (hTRPV1) (Homo sapiens)
Sequence (Q8NER1 whole entry): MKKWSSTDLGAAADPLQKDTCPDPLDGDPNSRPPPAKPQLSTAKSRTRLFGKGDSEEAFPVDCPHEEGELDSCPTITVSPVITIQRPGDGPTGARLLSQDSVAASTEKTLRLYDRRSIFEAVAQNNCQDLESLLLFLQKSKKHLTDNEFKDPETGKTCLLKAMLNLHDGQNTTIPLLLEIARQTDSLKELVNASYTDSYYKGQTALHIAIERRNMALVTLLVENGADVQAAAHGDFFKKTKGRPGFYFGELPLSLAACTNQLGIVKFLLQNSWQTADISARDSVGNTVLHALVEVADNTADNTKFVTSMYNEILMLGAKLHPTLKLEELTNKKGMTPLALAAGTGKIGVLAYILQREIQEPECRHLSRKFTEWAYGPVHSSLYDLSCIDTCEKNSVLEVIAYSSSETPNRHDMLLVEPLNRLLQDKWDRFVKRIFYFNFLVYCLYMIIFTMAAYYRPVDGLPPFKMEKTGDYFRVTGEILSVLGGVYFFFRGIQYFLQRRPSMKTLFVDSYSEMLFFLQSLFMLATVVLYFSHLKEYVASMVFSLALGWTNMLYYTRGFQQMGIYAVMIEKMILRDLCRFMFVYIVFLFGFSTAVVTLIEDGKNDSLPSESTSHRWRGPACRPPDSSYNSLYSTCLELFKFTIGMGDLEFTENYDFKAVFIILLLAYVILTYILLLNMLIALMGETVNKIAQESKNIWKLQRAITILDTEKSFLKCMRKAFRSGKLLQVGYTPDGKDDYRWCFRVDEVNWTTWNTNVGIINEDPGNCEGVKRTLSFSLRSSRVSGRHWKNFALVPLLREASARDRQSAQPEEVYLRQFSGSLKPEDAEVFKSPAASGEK
Assay: Ca2+ influx assay, antagonism against capsaicin in hTRPV1-HEK recombinant cells
Conditions: capsaicin 10 nM as activator, Fluo4-NW fluorescence, read-out: hTRPV1 IC50 [cap]
Keep it numeric: pIC50 is minus log10 of the concentration in mol/L.

Reference set (2 entries):
> print(dat)
                                   compound  result.value
1  CC(C)COc1cc(C(F)(F)F)ccc1/C=C/C(=O)Nc1cccc2[nH]c(=O)[nH]c12 [Example 42]          7.45
2  O=C(/C=C/c1ccc(C(F)(F)F)nc1N1CCOCC1)Nc1cccc2[nH]c(=O)[nH]c12 [Example 5]          7.79

Recall the reported pIC50 of CC1CC1COc1nc(C(F)(F)F)ccc1/C=C/C(=O)Nc1cccc2[nH]c(=O)[nH]c12 (stereo not drawn) [Example 16] when tested on human TRPV1 (hTRPV1) (Homo sapiens).
7.07

Give reported pIC50 for CC(C)(C)c1ccc(/C=C/C(=O)Nc2cccc3[nH]c(=O)[nH]c23)c(OCC2CC2)n1 [Example 23] (human TRPV1 (hTRPV1) (Homo sapiens))
6.66

Provide human TRPV1 (hTRPV1) (Homo sapiens) pIC50 reading for Cc1cccc(-n2nc(C(F)(F)F)cc2/C=C/C(=O)Nc2cccc3[nH]c(=O)[nH]c23)c1 [Example 48] .
8.00

// fetch pIC50 for CC(C)COc1nc(C(F)(F)F)ccc1CCC(=O)Nc1cccc2[nH]c(=O)[nH]c12 [Example 59] ; system: human TRPV1 (hTRPV1) (Homo sapiens)
7.39

# return pIC50 for O=C(/C=C/c1cc(C(F)(F)F)nn1-c1cccc(Cl)c1)Nc1cccc2[nH]c(=O)[nH]c12 [Example 47] , test system: human TRPV1 (hTRPV1) (Homo sapiens)
7.80

Write pIC50 of CC(C)(C)c1cc(C2CC2C(=O)Nc2cccc3[nH]c(=O)[nH]c23)n(-c2cccc(Cl)c2)n1 (stereo not drawn) [Example 68] ; system used: human TRPV1 (hTRPV1) (Homo sapiens)
6.86

Report pIC50 from human TRPV1 (hTRPV1) (Homo sapiens) testing of O=C(NCc1ccc(C(F)(F)F)nc1N1CCCCC1)Nc1cccc2[nH]c(=O)[nH]c12 [Comparative Example 3, reference compound]
7.87

Give pIC50 only, for O=C(/C=C/c1ccc(C(F)(F)F)nc1C1CCCC1)Nc1cccc2[nH]c(=O)[nH]c12 [Example 41] , using human TRPV1 (hTRPV1) (Homo sapiens) data.
6.91

Enter recorded pIC50 with human TRPV1 (hTRPV1) (Homo sapiens) for O=C(/C=C/c1ccc(C(F)(F)F)nc1-c1cccc(F)c1)Nc1cccc2[nH]c(=O)[nH]c12 [Example 30] here.
7.85

For human TRPV1 (hTRPV1) (Homo sapiens), give pIC50 of the listed compound: CCCN(CCC)c1nc(C(F)(F)F)ccc1/C=C/C(=O)Nc1cccc2[nH]c(=O)[nH]c12 [Example 7]
7.63

Report its pIC50 with human TRPV1 (hTRPV1) (Homo sapiens) as the test system: O=C(Nc1cccc2[nH]c(=O)[nH]c12)C1CC1c1cc(C(F)(F)F)nn1-c1cccc(Cl)c1 (stereo not drawn) [Example 63]
7.99

Write down measured pIC50 (human TRPV1 (hTRPV1) (Homo sapiens)) for this compound. O=C(/C=C/c1sc(C(F)(F)F)nc1-c1cccc(Cl)c1)Nc1cccc2[nH]c(=O)[nH]c12 [Example 54]
7.25

State pIC50 (human TRPV1 (hTRPV1) (Homo sapiens)) of O=C(/C=C/c1sc(C2CC2)nc1-c1cccc(Cl)c1)Nc1cccc2[nH]c(=O)[nH]c12 [Example 56] .
7.58

Provide pIC50, tested on human TRPV1 (hTRPV1) (Homo sapiens), for O=C(/C=C/c1ccc(C(F)(F)F)nc1OCC(F)(F)F)Nc1cccc2[nH]c(=O)[nH]c12 [Example 14] .
7.46

Tell me pIC50 of O=C(CCc1ccc(C(F)(F)F)nc1OCC1CC1)Nc1cccc2[nH]c(=O)[nH]c12 [Example 60] when tested on human TRPV1 (hTRPV1) (Homo sapiens).
7.63

Under human TRPV1 (hTRPV1) (Homo sapiens): report pIC50 of CCC1CCN(c2nc(C(F)(F)F)ccc2/C=C/C(=O)Nc2cccc3[nH]c(=O)[nH]c23)CC1 [Example 2] .
7.54

Write down measured pIC50 (human TRPV1 (hTRPV1) (Homo sapiens)) for this compound. O=C(/C=C/c1cc(C(F)(F)F)nn1-c1ccc(F)c(Cl)c1)Nc1cccc2[nH]c(=O)[nH]c12 [Example 49]
7.70

Provide pIC50, tested on human TRPV1 (hTRPV1) (Homo sapiens), for CC(C)(C)c1nc(-c2cccc(Cl)c2)c(/C=C/C(=O)Nc2cccc3[nH]c(=O)[nH]c23)s1 [Example 58] .
6.99

Determine reported pIC50 for O=C(/C=C/c1ccc(C(F)(F)F)nc1OC1CCC1)Nc1cccc2[nH]c(=O)[nH]c12 [Example 11] ; test system: human TRPV1 (hTRPV1) (Homo sapiens).
7.42

Under human TRPV1 (hTRPV1) (Homo sapiens): report pIC50 of CC1(c2ccc(/C=C/C(=O)Nc3cccc4[nH]c(=O)[nH]c34)c(OCC3CC3)n2)CC1 [Example 20] .
7.27

Give the observed pIC50 of O=C(/C=C/c1ccc(C(F)(F)F)nc1-c1cccs1)Nc1cccc2[nH]c(=O)[nH]c12 [Example 35] for human TRPV1 (hTRPV1) (Homo sapiens).
7.93

Report pIC50 from human TRPV1 (hTRPV1) (Homo sapiens) testing of O=C(/C=C/c1ccc(C(F)(F)F)nc1N1CCCCC1)Nc1cccc2[nH]c(=O)[nH]c12 [Example 4]
7.95
